The values you see were collected from patent US12371428B2.

measured-on: Met (phospho-Met, HGF-stimulated PC-3 prostate cancer cells) (Homo sapiens (Human), UniProt P08581)
Sequence (P08581 25-1390): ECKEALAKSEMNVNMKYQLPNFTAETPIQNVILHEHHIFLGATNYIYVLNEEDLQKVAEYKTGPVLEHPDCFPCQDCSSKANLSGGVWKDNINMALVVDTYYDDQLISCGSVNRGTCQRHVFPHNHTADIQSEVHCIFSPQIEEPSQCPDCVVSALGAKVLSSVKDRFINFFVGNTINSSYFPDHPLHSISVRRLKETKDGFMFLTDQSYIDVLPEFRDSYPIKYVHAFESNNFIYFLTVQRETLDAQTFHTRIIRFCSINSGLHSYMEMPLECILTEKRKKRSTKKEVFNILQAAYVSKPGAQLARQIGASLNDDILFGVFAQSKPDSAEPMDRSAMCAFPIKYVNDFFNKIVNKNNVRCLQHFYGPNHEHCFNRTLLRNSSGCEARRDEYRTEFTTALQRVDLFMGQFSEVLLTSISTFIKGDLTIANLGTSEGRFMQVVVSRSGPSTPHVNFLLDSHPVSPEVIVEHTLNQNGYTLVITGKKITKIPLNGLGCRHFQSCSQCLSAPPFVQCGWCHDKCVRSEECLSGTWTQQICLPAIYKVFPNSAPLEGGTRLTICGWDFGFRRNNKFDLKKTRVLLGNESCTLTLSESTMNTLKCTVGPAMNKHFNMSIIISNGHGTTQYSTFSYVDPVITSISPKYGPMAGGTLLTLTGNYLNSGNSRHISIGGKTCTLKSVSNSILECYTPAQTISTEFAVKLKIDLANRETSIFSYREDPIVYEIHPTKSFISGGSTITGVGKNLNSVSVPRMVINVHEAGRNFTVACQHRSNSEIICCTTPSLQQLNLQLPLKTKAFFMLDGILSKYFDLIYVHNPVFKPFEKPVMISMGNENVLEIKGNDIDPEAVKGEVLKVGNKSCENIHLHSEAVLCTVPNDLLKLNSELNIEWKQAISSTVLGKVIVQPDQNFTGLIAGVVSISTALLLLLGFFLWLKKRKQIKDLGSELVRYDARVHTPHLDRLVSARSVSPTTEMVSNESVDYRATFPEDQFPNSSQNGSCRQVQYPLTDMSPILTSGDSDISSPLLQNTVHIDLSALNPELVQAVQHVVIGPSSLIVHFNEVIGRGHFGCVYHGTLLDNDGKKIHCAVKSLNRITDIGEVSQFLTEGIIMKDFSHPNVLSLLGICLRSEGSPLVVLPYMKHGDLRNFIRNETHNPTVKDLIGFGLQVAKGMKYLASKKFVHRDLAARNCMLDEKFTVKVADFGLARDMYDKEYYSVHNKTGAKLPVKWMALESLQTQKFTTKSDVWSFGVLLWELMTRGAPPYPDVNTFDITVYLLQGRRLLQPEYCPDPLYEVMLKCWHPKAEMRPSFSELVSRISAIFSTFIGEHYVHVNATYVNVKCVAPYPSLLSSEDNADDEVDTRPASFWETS
experimental-protocol: Met autophosphorylation ELISA in PC-3 cells (Example F)
Type: cell-based
condition-notes: cellular activity; Met autophosphorylation ELISA in PC-3 cells; read-out: c-Met IC50
Below is a list of entries, each paired with its recorded IC50 value.

>  <smiles-notation>
CCn1cc(C(=O)Nc2ccc(Oc3ccnc4cc(OC)ccc34)c(F)c2)c(=O)c(-c2ccc(F)cc2)c1C

>  <IC50>
100 to 300 nM

$$$$
>  <smiles-notation>
COc1cc2nccc(Oc3ncc(NC(=O)c4cn(C5CC5)cc(-c5ccc(F)cc5)c4=O)cc3F)c2cc1OC

>  <IC50>
< 100 nM

$$$$
>  <smiles-notation>
CNC(=O)c1c(-c2ccc(F)cc2)c(=O)c(C(=O)Nc2ccc(Oc3ccnc4cc(OC)c(OC)nc34)c(F)c2)cn1C

>  <IC50>
< 100 nM

$$$$
>  <smiles-notation>
COc1cc2nccc(Oc3ccc(NC(=O)c4c(C)c(F)c(C)n(-c5ccc(F)cc5)c4=O)cc3)c2nc1OC

>  <IC50>
< 100 nM

$$$$
